Below, each of the molecules is paired with its reported PLD effect % in CaCo2 value.
- Tested on: CaCo2 cells
- measurement context: 10 μM in-assay concentration; ENZO library; amiodarone as positive control

[
  {
    "molecule": "CN1CCCC(n2nc(Cc3ccc(Cl)cc3)c3ccccc3c2=O)CC1 (stereo not drawn)",
    "unit info": "%",
    "PLD effect % in CaCo2": 36.5
  },
  {
    "molecule": "C[C@@H](NCCCc1cccc(C(F)(F)F)c1)c1cccc2ccccc12",
    "unit info": "%",
    "PLD effect % in CaCo2": 20.9
  },
  {
    "molecule": "CN1CCC[C@@H]1CCO[C@](C)(c1ccccc1)c1ccc(Cl)cc1",
    "unit info": "%",
    "PLD effect % in CaCo2": 6.9
  },
  {
    "molecule": "CNCC[C@H](Oc1cccc2ccccc12)c1cccs1",
    "unit info": "%",
    "PLD effect % in CaCo2": 84.9
  },
  {
    "molecule": "CN(C/C=C/c1ccccc1)Cc1cccc2ccccc12",
    "unit info": "%",
    "PLD effect % in CaCo2": "−3.3"
  },
  {
    "molecule": "CNCC[C@@H](Oc1ccccc1C)c1ccccc1",
    "unit info": "%",
    "PLD effect % in CaCo2": 0.7
  },
  {
    "molecule": "CSc1ccc2c(c1)N(CCC1CCCCN1C)c1ccccc1S2 (stereo not drawn)",
    "unit info": "%",
    "PLD effect % in CaCo2": 22.7
  },
  {
    "molecule": "CN(C)CCCN1c2ccccc2CCc2ccc(Cl)cc21",
    "unit info": "%",
    "PLD effect % in CaCo2": 74.6
  },
  {
    "molecule": "OCCN1CCN(CCCN2c3ccccc3Sc3ccc(C(F)(F)F)cc32)CC1",
    "unit info": "%",
    "PLD effect % in CaCo2": 95.4
  },
  {
    "molecule": "CN1CCN(CCCN2c3ccccc3Sc3ccc(C(F)(F)F)cc32)CC1",
    "unit info": "%",
    "PLD effect % in CaCo2": 63.2
  },
  {
    "molecule": "CN(C)CCCN1c2ccccc2Sc2ccc(Cl)cc21",
    "unit info": "%",
    "PLD effect % in CaCo2": 67.1
  },
  {
    "molecule": "CC(CN1c2ccccc2Sc2ccccc21)N(C)C (stereo not drawn)",
    "unit info": "%",
    "PLD effect % in CaCo2": 37.8
  }
]

====

- System: Vero-E6 cells
- protocol description: cells
- Format: cell-based
- measurement context: Chlorocebus sabaeus, Vero C1008, 24 h; read-out: PLD Effect in % 10 µM
Structures can show the parent of a compound that is named as a salt.
parameter: activation at 10 µM (%)

[
  {
    "molecule": "CNCc1ccc(C)c(NC(=O)c2ccc(Nc3nc(-c4ccccc4)c4ccccc4n3)cc2)c1 [BMS-833923 (XL139), reference compound]",
    "parameter": "activation at 10 µM",
    "recorded result": 59.1
  },
  {
    "molecule": "Cc1ccc(NC(=O)c2ccc(CN3CCN(C)CC3)cc2)cc1Nc1nc(-c2cccnc2)cs1 [masitinib (AB1010), masitinib, reference compound]",
    "parameter": "activation at 10 µM",
    "recorded result": 45.2
  },
  {
    "molecule": "CCCCN(CCCC)CCC(O)c1cc2c(Cl)cc(Cl)cc2c2cc(C(F)(F)F)ccc12 (stereo not shown) [halofantrine HCl, reference compound]",
    "parameter": "activation at 10 µM",
    "recorded result": 87
  },
  {
    "molecule": "CCN1CCN(Cc2ccc(C(=O)Nc3ccc(C)c(Oc4ccc5c(c4)CC(=O)N5)c3)cc2C(F)(F)F)CC1 [DDR1-IN-1, reference compound]",
    "parameter": "activation at 10 µM",
    "recorded result": 75.8
  },
  {
    "molecule": "COc1cc2c(Nc3ccc(Br)cc3F)ncnc2cc1OCC1CCN(C)CC1 [Vandetanib (ZD6474), Vandetanib, reference compound]",
    "parameter": "activation at 10 µM",
    "recorded result": 136
  },
  {
    "molecule": "CN(C)C/C=C/C(=O)Nc1cc2c(Nc3ccc(F)c(Cl)c3)ncnc2cc1O[C@H]1CCOC1 [Afatinib, reference compound]",
    "parameter": "activation at 10 µM",
    "recorded result": 249
  },
  {
    "molecule": "CN(C)CC/C=C1/c2ccccc2Sc2ccc(Cl)cc21 [chlorprothixene hydrochloride, reference compound]",
    "parameter": "activation at 10 µM",
    "recorded result": 113
  },
  {
    "molecule": "Cc1ccc(C(=O)N(CCCN)[C@@H](c2oc3cc(Cl)ccc3c(=O)c2Cc2ccccc2)C(C)C)cc1 [SB-743921, reference compound]",
    "parameter": "activation at 10 µM",
    "recorded result": 224
  },
  {
    "molecule": "CCOc1cc2ncc(C#N)c(Nc3ccc(F)c(Cl)c3)c2cc1NC(=O)/C=C/CN(C)C [Pelitinib (EKB-569), Pelitinib, reference compound]",
    "parameter": "activation at 10 µM",
    "recorded result": 85.5
  },
  {
    "molecule": "NCCC(Oc1ccc(C(F)(F)F)cc1)c1ccccc1 (stereo not shown) [norfluoxetine, reference compound]",
    "parameter": "activation at 10 µM",
    "recorded result": 112
  },
  {
    "molecule": "CN1CCC(Nc2ncc3ncnc(Nc4ccc(F)c(Cl)c4)c3n2)CC1 [BiBX-1382, reference compound]",
    "parameter": "activation at 10 µM",
    "recorded result": 75.5
  },
  {
    "molecule": "CCN(CC)CCCC(C)Nc1c2ccc(Cl)cc2nc2ccc(OC)cc12 (stereo not shown) [quinacrine hydrochloride, reference compound]",
    "parameter": "activation at 10 µM",
    "recorded result": 141
  },
  {
    "molecule": "COc1cccc([C@@H](C)NCCCc2ccccc2Cl)c1 [tecalcet, reference compound]",
    "parameter": "activation at 10 µM",
    "recorded result": 74.3
  },
  {
    "molecule": "COC(=O)C1=C(C)NC(C)=C(C(=O)NCCCN2CCC(c3ccccc3)(c3ccccc3)CC2)C1c1ccc([N+](=O)[O-])cc1 (stereo not shown) [SNAP-5089, reference compound]",
    "parameter": "activation at 10 µM",
    "recorded result": 78.4
  },
  {
    "molecule": "CN1C[C@H](CNC(=O)OCc2ccccc2)C[C@@H]2c3cccc4c3c(cn4C)C[C@H]21 [metergoline, reference compound]",
    "parameter": "activation at 10 µM",
    "recorded result": 73
  },
  {
    "molecule": "C[C@@H](NCCCc1cccc(C(F)(F)F)c1)c1cccc2ccccc12 [AMG-073 HCl, cinacalcet hydrochloride, reference compound]",
    "parameter": "activation at 10 µM",
    "recorded result": 79.5
  },
  {
    "molecule": "COc1ccc(NC(=O)c2ccc(-c3ccc(-c4noc(C)n4)cc3C)cc2)cc1N1CCN(C)CC1 [GR-127935, reference compound]",
    "parameter": "activation at 10 µM",
    "recorded result": 162
  },
  {
    "molecule": "Cc1cc(Nc2ncc(Cl)c(Nc3ccccc3S(=O)(=O)C(C)C)n2)c(OC(C)C)cc1C1CCNCC1 [Ceritinib, reference compound]",
    "parameter": "activation at 10 µM",
    "recorded result": 116
  },
  {
    "molecule": "COCC(=O)O[C@]1(CCN(C)CCCc2nc3ccccc3[nH]2)CCc2cc(F)ccc2[C@@H]1C(C)C [mibefradil, reference compound]",
    "parameter": "activation at 10 µM",
    "recorded result": 80.5
  },
  {
    "molecule": "Cc1cccc(C)c1NC(=O)CN1CCN(CCCC(c2ccc(F)cc2)c2ccc(F)cc2)CC1 [lidoflazine, reference compound]",
    "parameter": "activation at 10 µM",
    "recorded result": 80.2
  },
  {
    "molecule": "CN(C)C(=O)C(CCN1CCC(O)(c2ccc(Cl)cc2)CC1)(c1ccccc1)c1ccccc1 [loperamide hydrochloride, reference compound]",
    "parameter": "activation at 10 µM",
    "recorded result": 75.4
  },
  {
    "molecule": "CCOc1cc(C(C)(C)C)ccc1C1=N[C@@](C)(c2ccc(Cl)cc2)[C@@](C)(c2ccc(Cl)cc2)N1C(=O)N1CCN(CCCS(C)(=O)=O)CC1 [RG7112 (RO50455337), reference compound]",
    "parameter": "activation at 10 µM",
    "recorded result": 141
  },
  {
    "molecule": "O=C(NC1CCN(CCCCC2(C(=O)NCC(F)(F)F)c3ccccc3-c3ccccc32)CC1)c1ccccc1-c1ccc(C(F)(F)F)cc1 [Lomitapide, reference compound]",
    "parameter": "activation at 10 µM",
    "recorded result": 169
  },
  {
    "molecule": "O=C(c1ccc(F)c(F)c1Nc1ccc(I)cc1F)N1CC(O)([C@@H]2CCCCN2)C1 [Cobimetinib, reference compound]",
    "parameter": "activation at 10 µM",
    "recorded result": 135
  },
  {
    "molecule": "Cc1ccc(C(=O)N(CCCN)[C@@H](c2nc3cc(Cl)ccc3c(=O)n2Cc2ccccc2)C(C)C)cc1 [ispinesib (SB-715992), ispinesib, reference compound]",
    "parameter": "activation at 10 µM",
    "recorded result": 205
  }
]
